Literature compilation of IC50 measurements on Aurora kinase A (Homo sapiens).

{"compound": "Cc1c(-c2ccnc(Nc3ccc(O)cc3)n2)c(C)n2c1C(=O)NCC2", "system-name": "Aurora kinase A (Homo sapiens)", "reported": "< 1000 nM"}
{"compound": "O=[N+]([O-])c1cccc(Nc2nccc(-c3ccc(CN4CCCCC4CO)cc3)n2)c1 (stereo not shown)", "system-name": "Aurora kinase A (Homo sapiens)", "reported": "1100 nM"}
{"compound": "CC(=O)N[C@]1(Cc2cccc(Nc3nccs3)n2)CC[C@@H](Oc2cccc(Cl)c2F)CC1", "system-name": "Aurora kinase A (Homo sapiens)", "reported": "0.82 nM"}

Task: Field request: IC50 | item: COc1ccc(-c2cn[nH]c2-c2c[nH]c(C(=O)NCc3cccnc3)c2)cc1OC
Output: 5000 to 10000 nM

Task: For CC(=O)N(C)c1ccc2c(Nc3cc(C)[nH]n3)nn(C(C)C)c(=O)c2c1 , what is its reported IC50?
Output: 1 to 100 nM

Task: Returns the measured IC50 for the input compound. Input: O=[N+]([O-])c1cccc(Oc2cccc(Nc3nccc(-c4nccs4)n3)c2)c1
Output: > 2000 nM

Task: Requested field: IC50. Item: C=CCCN1C(=O)C(C)(C)c2cc3nc(-c4n[nH]c5ccccc45)[nH]c3cc21
Output: 1 to 100 nM

Task: What value of IC50 has been reported for the following compound? O=C(O)[C@]1(Cc2cccc(Nc3cc[nH]n3)n2)CC[C@@H](Sc2cccc(Cl)c2Cl)CC1
Output: 0.13 nM

Task: Item under review: COc1ccc(-c2cn[nH]c2-c2c[nH]c(C(=O)NOCc3ccccc3)c2)cc1OC . Reported IC50?
Output: > 10000 nM

Task: Sample COc1ccc(C(=O)Cn2nc(Nc3cc(C)[nH]n3)c3ccccc3c2=O)cc1 — what was its IC50?
Output: 1 to 100 nM
